inhibition at 5 µM values, listed per item
- measurement-target: HLA-A1101 (Homo sapiens, UniProt P04439, A114D/D185E/E176A/F33Y/L180Q/S129P/T187R)
- Construct: expressed in transfected cells; host or cells: HMy2.CIR
- assay-info: cell-based
- Type: binding
- study-conditions: HLA-A1101 HMy2.CIR cells; competitor peptide 5μM; 24 hours; flow cytometry; read-out: 5μM Inhibition (%)
Residues, ends and D or L forms follow the SMILES beside them.
Please give a number only; it is taken to be in %.

{"compound": "CSCC[C@H](NC(=O)[C@@H](N)CCSC)C(=O)N[C@@H](Cc1c[nH]c2ccccc12)C(=O)N[C@@H](Cc1ccc(O)cc1)C(=O)N[C@@H](Cc1c[nH]c2ccccc12)C(=O)NCC(=O)N1CCC[C@H]1C(=O)N[C@@H](CO)C(=O)N[C@@H](CC(C)C)C(=O)O [Epitope P72]", "quantity-unit": "%", "inhibition at 5 µM": 14.3}
{"compound": "CC[C@H](C)[C@H](NC(=O)[C@H](CC(C)C)NC(=O)[C@H](CS)NC(=O)[C@H](CC(C)C)NC(=O)[C@H](CC(C)C)NC(=O)[C@H](CC(C)C)NC(=O)[C@@H](NC(=O)[C@H](Cc1ccccc1)NC(=O)[C@@H](N)CC(C)C)[C@@H](C)CC)C(=O)O [Epitope P20] (H-LFILLLCLI-OH; N-terminus and C-terminus assumed)", "quantity-unit": "%", "inhibition at 5 µM": 5.05}
{"compound": "CC(C)C[C@H](NC(=O)[C@H](Cc1ccccc1)NC(=O)[C@H](C)NC(=O)[C@H](CCCCN)NC(=O)[C@H](Cc1ccc(O)cc1)NC(=O)[C@@H](NC(=O)[C@@H]1CCCN1)[C@@H](C)O)C(=O)N[C@@H](CS)C(=O)N[C@@H](CCCCN)C(=O)O [Epitope P16] (H-PTYKAFLCK-OH; N-terminus and C-terminus assumed)", "quantity-unit": "%", "inhibition at 5 µM": 61.4}
{"compound": "CC[C@H](C)[C@H](NC(=O)CNC(=O)[C@H](CC(C)C)NC(=O)[C@H](CO)NC(=O)[C@H](CC(C)C)NC(=O)[C@H](CC(C)C)NC(=O)[C@@H](N)Cc1ccccc1)C(=O)N[C@@H](Cc1c[nH]cn1)C(=O)N[C@@H](CC(C)C)C(=O)O [Epitope P10]", "quantity-unit": "%", "inhibition at 5 µM": 7.2}
{"compound": "CC[C@H](C)[C@H](NC(=O)[C@H](CO)NC(=O)[C@H](Cc1ccc(O)cc1)NC(=O)[C@@H](N)CC(C)C)C(=O)N[C@@H](CC(C)C)C(=O)N[C@@H](CO)C(=O)N1CCC[C@H]1C(=O)N[C@@H](Cc1ccccc1)C(=O)N[C@@H](CC(C)C)C(=O)O [Epitope P19] (H-LYSILSPFL-OH; N-terminus and C-terminus assumed)", "quantity-unit": "%", "inhibition at 5 µM": 0.9}
{"compound": "CC(C)C[C@H](NC(=O)[C@H](Cc1ccc(O)cc1)NC(=O)[C@H](CCCCN)NC(=O)[C@@H](NC(=O)[C@@H](NC(=O)[C@H](CCCCN)NC(=O)[C@@H]1CCCN1C(=O)[C@H](Cc1ccc(O)cc1)NC(=O)[C@@H](N)Cc1ccccc1)C(C)C)[C@@H](C)O)C(=O)O [Epitope P25] (H-FYPKVTKYL-OH; N-terminus and C-terminus assumed)", "quantity-unit": "%", "inhibition at 5 µM": 4.14}

Sure, the documented inhibition at 5 µM for CC[C@H](C)[C@H](NC(=O)[C@H](C)NC(=O)[C@@H](N)CO)C(=O)N[C@@H](CO)C(=O)N[C@@H](CO)C(=O)N[C@H](C(=O)N[C@@H](CO)C(=O)N[C@@H](CO)C(=O)N[C@@H](CCCCN)C(=O)O)[C@@H](C)CC [Epitope P39] (H-SAISSISSK-OH; N-terminus and C-terminus assumed) is 86

Sure, the documented inhibition at 5 µM for CSCC[C@H](NC(=O)[C@@H](N)CCSC)C(=O)N[C@@H](Cc1c[nH]c2ccccc12)C(=O)N[C@@H](Cc1ccc(O)cc1)C(=O)N[C@@H](Cc1c[nH]c2ccccc12)C(=O)NCC(=O)N1CCC[C@H]1C(=O)N[C@@H](CO)C(=O)N[C@@H](CC(C)C)C(=O)N[C@@H](Cc1ccc(O)cc1)C(=O)O [Epitope P108] is 31.8

# credit: paper PMC9021956
